test: Toxicologic evaluation in vivo; details: 50 or 100 mg/kg intraperitoneally twice a week for two weeks; FIG. 11
So I've got a bunch of molecules here, and I need their lung toxicity (hemorrhage in the lungs), mice affected values.

Endpoint output: lung toxicity (hemorrhage in the lungs), mice affected of O=c1ccc2cnc(Nc3ccc(N4CCC(CCCO)CC4)cc3)nc2n1C1CC2CCC1C2 (stereo not shown) [PD-0183812, reference compound] . Value?
6 out of 6

Endpoint output: lung toxicity (hemorrhage in the lungs), mice affected of CC(=O)c1c(C)c2cnc(Nc3ccc(N4CCC(CCCO)CC4)cc3)nc2n(C2CCCC2)c1=O [PS009] . Value?
1 out of 6

Endpoint output: lung toxicity (hemorrhage in the lungs), mice affected of CC(O)CCC1CCN(c2ccc(Nc3ncc4ccc(=O)n([C@@H]5CC6CCC5C6)c4n3)cc2)CC1 (stereo partly shown) [PS004] . Value?
4 out of 6

Endpoint output: lung toxicity (hemorrhage in the lungs), mice affected of CC(O)COC1CCN(c2ccc(Nc3ncc4ccc(=O)n([C@@H]5CC6CCC5C6)c4n3)cc2)CC1 (stereo partly shown) [PS006] . Value?
1 out of 6
